- System: K562
- TEST_NAME: cell viability relative to vehicle control; higher = less cytotoxic;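 also: after 48 h exposure read by CellTiter-Glo luminescence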
- CONDITION_PARAMETERS: 10 µM; SRSF2 genotype: SRSF2 wt/wt
Structures can show the parent of a compound that is named as a salt.

COMPOUND	SYSTEM_UNDER_TEST	UNIT_NAME	cell viability
OC1OC[C@@H](O)[C@@H](O)[C@@H]1O (stereo partly drawn) [D(-)-Arabinose]	K562	%	118
O=C1C(Cl)=C(N2CCOCC2)C(=O)N1c1ccc(Cl)c(Cl)c1	K562	%	97.4
Nc1c(Br)cc(Br)cc1CN[C@H]1CC[C@H](O)CC1 [Ambroxol]	K562	%	98.9
CCC1(c2c[nH]cn2)Cc2ccccc2C1 [Atipamezole]	K562	%	81.6
Cc1ccnc2c1NC(=O)c1cccnc1N2C1CC1 [Nevirapine (Viramune)]	K562	%	95.5
O=C(COc1ccc(Cl)cc1)NC1CCC(NC(=O)COc2ccc(Cl)cc2)CC1 (stereo not drawn) [ISRIB (trans-isomer)]	K562	%	100
C/C=C(/C)C(=O)OC(C)(C)[C@@H]1Cc2c(ccc3ccc(=O)oc23)O1 [Columbianadin]	K562	%	99.2
C[S+](CC[C@H](N)C(=O)[O-])C[C@H]1O[C@@H](n2cnc3c(N)ncnc32)[C@H](O)[C@@H]1O (some centres not stated) [Ademetionine disulfate tosylate]	K562	%	103
CC[C@@]1(O)C(=O)OCc2c1cc1n(c2=O)Cc2cc3cc(O)ccc3nc2-1 [10-Hydroxycamptothecin]	K562	%	9.32
CC(C)c1ccc(C=O)cc1 [4-Isopropylbenzaldehyde]	K562	%	92.4
Cc1cc2c(C(=O)NCC(C)c3ccccc3)c(O)c(O)cc2c(O)c1-c1c(C)cc2c(C(=O)NCC(C)c3ccccc3)c(O)c(O)cc2c1O (configuration not stated) [Sabutoclax]	K562	%	2.42
NCCCC[C@@H]1NC(=O)[C@@H](Cc2ccccc2)NC(=O)[C@H](CC(=O)O)NC(=O)CNC(=O)[C@H](CCCN=C(N)N)NC1=O [Cyclo (-RGDfK)]	K562	%	103
NCCOc1ccc(Cl)cc1C(=O)Nc1ccc([N+](=O)[O-])cc1Cl	K562	%	23.4
CC(=O)Nc1ccc(OC(=O)c2ccccc2OC(C)=O)cc1 [Benorylate]	K562	%	98.9
Clc1ccc2c(N3CCN(CCCN4CCN(c5ccnc6cc(Cl)ccc56)CC4)CC3)ccnc2c1 [Piperaquine phosphate]	K562	%	98.2
N[C@H]1CC[C@H](N[C@@H]2C[C@H]2c2ccccc2)CC1	K562	%	93.3
CCOC(=O)c1cc2ccccc2oc1=O [Ethyl Coumarin-3-carboxylate]	K562	%	92.9

====

- System: K562
- TEST_NAME: cell viability relative to vehicle control; higher = less cytotoxic
- CONDITION_PARAMETERS: 10 µM; SRSF2 genotype: SRSF2 wt/wt
Counter-ions that a name gives are not always drawn.
Class boundaries, taken from values of cell viability, are as follows: class 0 (below 80%), class 1 (80% to below 90%), class 2 (90% or more)

In [3]: df
Out[3]:
                                    compound  label_class
 0  O=C(Oc1cccc(F)c1OC(=O)c1cccc(O)c1)c1cccc(O)c1      class 2
 1  CCS(=O)(=O)N1CCC([C@@H](C)n2c(C)c(C(=O)NCc3c(OC)cc(C)[nH]c3=O)c3ccccc32)CC1      class 2
 2  CCN(CC)CCCC[C@H](NC(=O)[C@H](CC(C)C)NC(=O)[C@H](C)NC(=O)[C@H](Cc1ccccc1)NC(=O)c1ccc(C(C)(C)C)cc1)C(=O)N[C@@H](CO)C(=O)OC      class 1
 3  CCCCC(C=O)NC(=O)C(CC(C)C)NC(=O)C(CC(C)C)NC(C)=O (stereo not drawn)      class 0
 4                     NC(=S)N/N=C/c1ncccc1N      class 0
 5  Nc1[nH]cnc2ncnc1-2 [Adenine hydrochloride]      class 2
 6  C=CC(=O)Nc1cc(N2CCN(CC)CC2)ccc1Nc1cc(N(C)C(=O)Nc2c(Cl)c(OC)cc(OC)c2Cl)ncn1      class 0
 7  C#C[C@]1(O)CC[C@H]2[C@@H]3CCC4=CC(=O)CC[C@@H]4[C@H]3CC[C@@]21C      class 2
 8  Cn1nc(C(C)(C)C)cc1C(=O)N[C@@H](Cc1cccc(Cl)c1)C(=O)NCC#N      class 1
 9  Cc1c(C(=O)Nc2ccc(Oc3ccnc4[nH]cc(-c5ccccc5)c34)c(F)c2)c(=O)n(-c2ccc(F)cc2)n1C      class 0
10   Cc1nc(-c2ccc(OCC(C)C)c(C#N)c2)sc1C(=O)O      class 2
11  Cc1ccc(O)c([C@H](CCN(C(C)C)C(C)C)c2ccccc2)c1 [Tolterodine tartrate (Detrol LA)]      class 1
12  O=C(O)c1ccc(Nc2ncc3c(n2)-c2ccc(Cl)cc2C(c2c(F)cccc2F)=NC3)cc1      class 0
13  CC(C(=O)O)c1ccc(C(=O)c2cccs2)cc1 (stereo not drawn)      class 2
14  CC(C)(C)C(=O)Nc1ccc2c(c1)C(=O)C(=O)c1ccccc1-2      class 0

====

- Test system: MOLM14
- TEST_NAME: cell viability relative to vehicle control; higher = less cytotoxic
- CONDITION_PARAMETERS: 10 µM; SRSF2 genotype: SRSF2 P95H/wt
Counter-ions that a name gives are not always drawn.
Decide using cell viability alone. Strictly below 90%: Fulfilled. Equal to or above 90%: Not fulfilled.

COMPOUND	LABEL_CLASS
O=c1c2ccccc2nc(C=Cc2cccnc2)n1Cc1ccccc1	Fulfilled
NC(=O)c1ncn([C@@H]2O[C@H](CO)[C@@H](O)[C@H]2O)n1	Fulfilled
OC[C@@H](O)[C@@H](O[C@H]1O[C@H](CO)[C@@H](O)[C@H](O)[C@H]1O)[C@H](O)[C@@H](O)CO	Not fulfilled
Fc1ccc2[nH]ccc2c1-c1nc(N2CCOCC2)c2sc(CN3CCN(CC4CC4)CC3)cc2n1	Fulfilled
COc1cc(O)cc(O)c1C(=O)C=Cc1ccccc1	Fulfilled
Cn1cc(C(=O)[C@@H]2CCc3[nH]cnc3C2)c2ccccc21 [Ramosetron Hydrochloride]	Not fulfilled
Cc1nc2ccc(-n3ncc(C(=O)c4cc5ccccc5[nH]4)c3N)cc2[nH]1	Fulfilled
COC(=O)Nc1nc2cc([S+]([O-])c3ccccc3)ccc2[nH]1 (configuration not stated)	Fulfilled
CC1(C)S[C@@H]2[C@H](NC(=O)[C@H](N)c3ccc(O)cc3)C(=O)N2[C@H]1C(=O)O [Amoxicillin sodium (Amox)]	Not fulfilled
CC(C)c1ccc(C=O)cc1	Fulfilled
O=C(/C=C/c1ccc(O[C@@H]2O[C@H](CO)[C@@H](O)[C@H](O)[C@H]2O)cc1)c1ccc(O)cc1O	Fulfilled
C=C1C2CCC3C2C(C)(C)CCCC13C (single isomer, unassigned; (+)) [(+)-Longifolene]	Not fulfilled
O=C(O)Cc1cccc2ccccc12	Not fulfilled
O=C(Nc1cccnc1)N1CCC(Cc2cccc(Oc3ccc(C(F)(F)F)cn3)c2)CC1	Fulfilled
COc1ccccc1OCC(O)CO (configuration not stated)	Not fulfilled
C=C[C@@H]1C[C@]1(NC(=O)[C@@H]1C[C@@H](Oc2ncc(OC)c3ccc(Cl)cc23)CN1C(=O)[C@@H](NC(=O)OC(C)(C)C)C(C)(C)C)C(=O)NS(=O)(=O)C1CC1	Not fulfilled

====

- System: MARIMO
- TEST_NAME: cell viability relative to vehicle control; higher = less cytotoxic
- CONDITION_PARAMETERS: 10 µM; SRSF2 genotype: SRSF2 P95H/wt
Where a name gives a salt, the structure may show the parent alone.
# cell viability listing for each entry below
PROPERTY_MEASURED: cell viability (%)

>>> print(df.to_string())
                                   molecule  unit_name  result
0  Cc1ccccc1C(OCCN(C)C)c1ccccc1 (centres undefined) [Orphenadrine Hydrochloride]          %    86.2
1  O=C(/C=C/c1cccc(S(=O)(=O)Nc2ccccc2)c1)NO          %    8.17
2  Nc1nc(NCCNc2ncc(-n3ccnc3)c(-c3ccc(Cl)cc3Cl)n2)ccc1[N+](=O)[O-]          %     125
3  C=C(C)C1CC=C(C=NO)CC1 (centres undefined)          %     104
4           Cc1ncc(CO)c(CO)c1O [Pyridoxine]          %     107
5  Cc1cccc(-c2[nH]c(C(C)(C)C)nc2-c2ccc3nccnc3c2)n1          %     108
6  COc1ccc(C(=O)C2CCN(CC(=O)N(Cc3nc4c(c(=O)[nH]3)COCC4)CC3CC3)CC2)cc1          %     108
7   COc1cc(-c2oc3cc(O)cc(O)c3c(=O)c2O)ccc1O          %    83.4
8  C[C@@H]1CN(CC(=O)Nc2ccc3c(c2)Cc2cccc(-c4cc(=O)cc(N5CCOCC5)o4)c2S3)C[C@H](C)O1          %    82.9
